These measurements were taken from PubChem BioAssay.

assay text: reduction of polyQ htt aggregates in cells – imaging, exon1htt(103Q)mCFP cells, high-content imaging, primary screen (AID 483);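 also: compound exposure lasted 3 days before fixation; percent of the per-plate median nuclei count of sample wells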
protocol conditions: exon1htt(103Q)mCFP cell line, aggregate imaging, at 2 µM; measured here: cell count, toxicity
Some compounds, each annotated with its measured nuclei count.
Your answer should be a plain number; it is taken to be in %.

Cc1c(NC(=O)C2(c3ccccc3)CCOCC2)c(=O)n(-c2ccccc2)n1C | 90.5
COC(=O)Cn1c(=O)c2c(nc3n2CC(C)CN3c2ccc(C)c(C)c2)n(C)c1=O (stereo not given) | 110
COc1cccc(C2C(C(=O)c3ccc(C)o3)=C(O)C(=O)N2CCCN(C)C)c1 (stereo not given) | 83.9
CCCCNC(=O)c1nc2ncc(Br)cn2n1 | 109
CCc1nnc(NC(=O)CSc2nnc3scc(-c4ccc(C)cc4)n23)s1 | 96.5

Challenge: Which nuclei count value belongs to "Cc1cc(C)c2c(n1)nn1c(N3CCOCC3)cc(C)nc21" ?
Response given: 81.9

Challenge: Which nuclei count value belongs to "O=C(O)c1cccc(NC(=O)C23CC4CC(C2)CC(n2cnc(Cl)n2)(C4)C3)c1" ?
Response given: 108

Challenge: Which nuclei count value belongs to CCOC(=O)N1CCC(N2C(=O)c3ccccc3C2Nc2ccc3c(C)cc(=O)oc3c2)CC1 (stereo not given) ?
Response given: 101

Challenge: Which nuclei count value belongs to COc1ccc(OC)c(C2C(C(=O)Nc3cccnc3)=C(C)NC3=C2C(=O)CCC3)c1 (stereo not given) ?
Response given: 103

Challenge: Which nuclei count value belongs to "CC1(C)CC(=O)C(C=NCC2CCNCC2)=C(O)C1" ?
Response given: 74.8

###

Some compounds, each annotated with its measured nuclei count.
assay text: endothelial E-selectin expression blockers – imaging, HUVEC, immunofluorescence, MLSMR starter and 10KST1 sets, primary screen (AID 487);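 as to nuclei count: 100% = median nuclei count of all wells on the same plate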
protocol conditions: HUVEC TNFalpha-induced E-selectin immunofluorescence imaging, at 2 µM; measured here: cell number, toxicity
Your answer should be a plain number; it is taken to be in %.

Worked examples follow.
O=C(NCCC1=CCCCC1)N[C@@H](Cc1ccccc1)C(=O)O | 115
CCOC(=O)N1CCC(NC(=O)c2cc3c(=O)n(C)c4ccccc4c3n2C)CC1 | 112
Cc1cc(C)c(NC(=O)C2CSCCS2)c(C)c1 (stereo unspecified) | 111
Cc1ccccc1Nc1nc(N)nc(CSCc2c(C)noc2C)n1 | 117
FC(F)(F)c1cc(-c2ccccc2)nc(N2CCCCC2)n1 | 105
COC(=O)c1ccccc1NC(=O)CSc1nc2c(c(=O)n(C)c(=O)n2C)n1C | 119

Challenge: Which nuclei count value belongs to "CN(C1CCCCC1)S(=O)(=O)c1ccc(NC(=O)c2ccco2)cc1" ?
Response given: 112

Challenge: Which nuclei count value belongs to "O=C(OCc1ccccc1F)c1ccc2c(c1)OCCO2" ?
Response given: 90.8

###

assay text: endothelial E-selectin expression blockers – imaging, HUVEC, immunofluorescence, MLSMR starter and 10KST1 sets, primary screen (AID 487);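 as to inhibition: signal is fraction of cell area covered by stained E-selectin grains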
protocol conditions: HUVEC TNFalpha-induced E-selectin immunofluorescence imaging, at 2 µM; stronger effect = higher value
reported metric: inhibition (%)
Your answer should be a plain number; it is taken to be in %.

COC(=O)C1C(=O)c2c([nH]c(C(=O)OCCOC(C)C)c2C)CC1C (stereo unspecified) | -46.9
Cc1cccn2c(=O)c3cc(C(=O)NC4CCCC4)c(=N)n(C4CCCC4)c3nc12 | -189
COC(=O)c1ccc(NC(=O)Cn2nnc3ccccc32)cc1 | -8.2
Cc1ccc(-n2ncc3c(=O)[nH]c(SCC(=O)N4CCN(c5ccccc5)CC4)nc32)cc1 | -22.6
COC(=O)Cn1c(=O)c2c(nc(Br)n2CC(=O)OC)n(C)c1=O | 24.8

Challenge: Which inhibition value belongs to "CCOc1ccc(OCC)c(NC(=O)C2CCN(c3ncccn3)CC2)c1" ?
Response given: -43.7

Challenge: Which inhibition value belongs to "CN1CCN(c2oc(COc3ccc(-c4ccccc4)cc3)nc2C#N)CC1" ?
Response given: -35.9

Challenge: Which inhibition value belongs to O=C(COC(=O)c1ccccc1Oc1ccccc1)NC1CCS(=O)(=O)C1 (stereo unspecified) ?
Response given: -124

Challenge: Which inhibition value belongs to "CN(C)/C=N/c1ncnc2c1cnn2-c1ccc(C(F)(F)F)cn1" ?
Response given: 21

Challenge: Which inhibition value belongs to O=C(O)CC1NC(=O)N(c2ccccc2)C1=O (stereo unspecified) ?
Response given: -106

Challenge: Which inhibition value belongs to "Brc1ccccc1-c1nc(-c2ccccc2)no1" ?
Response given: -25.4

###

assay text: inhibitors of TNFa-induced NFkB p65 translocation, primary screen, imaging, HUVEC, MLSMR starter and 10KST1 sets (AID 438);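 also: compound added about 3h40 before a 20 min TNFalpha stimulation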
protocol conditions: HUVEC TNFa-induced p65 nuclear translocation; measured here: nuclei count (cytotoxicity indicator), at 2.08 µM
Tag: Fulfilled if measured cell count is not below 400, Not fulfilled if it is.

Solved entries:
Cc1cc(C(=O)OCCO)c(C#N)c(N)n1 | Not fulfilled
O=C(COC(=O)c1cnccn1)c1ccc(OC(=O)c2ccccc2)cc1 | Not fulfilled
CCN(CC)S(=O)(=O)c1ccc(NC2c3ccccc3C(=O)N2CCN2CCOCC2)cc1 (centres undefined) | Fulfilled
C/C(N)=C(/C#N)C(=O)CSc1nnc(Nc2cccc(C)c2)s1 | Fulfilled
Cc1cc(=O)n(CCO)c(O)c1C#N | Fulfilled
Cc1ccc2cc(CN(Cc3ccc(F)cc3)Cc3nnnn3C3CCCC3)c(=O)[nH]c2c1 | Fulfilled
CCc1ccc(NC(=O)CSc2nnc(Cc3cccn3C)n2-c2ccc(OC)cc2)cc1 | Fulfilled
COc1ccccc1C(=O)OCn1nnc2ccccc2c1=O | Fulfilled
O=C(NCC(=O)N1CCC(N2CCCCC2)CC1)C1CCCCC1 | Fulfilled
CCc1ccc(C=NC23CN4CN(CN(C4)C2)C3)s1 | Not fulfilled

Challenge: State whether the measured cell count reaches 400, counting equality as reaching it, for "O=S(=O)(c1cccc(-c2nnco2)c1)N1CCCC1"
Response given: Fulfilled

Challenge: State whether the measured cell count reaches 400, counting equality as reaching it, for CS(=O)(=O)NCC(c1cccnc1)N1CCN(c2ccc(F)cc2)CC1 (centres undefined)
Response given: Not fulfilled

###

assayed target: Alpha-2C adrenergic receptor (Homo sapiens) (UniProt P18825)
Sequence (P18825 whole entry, looked up): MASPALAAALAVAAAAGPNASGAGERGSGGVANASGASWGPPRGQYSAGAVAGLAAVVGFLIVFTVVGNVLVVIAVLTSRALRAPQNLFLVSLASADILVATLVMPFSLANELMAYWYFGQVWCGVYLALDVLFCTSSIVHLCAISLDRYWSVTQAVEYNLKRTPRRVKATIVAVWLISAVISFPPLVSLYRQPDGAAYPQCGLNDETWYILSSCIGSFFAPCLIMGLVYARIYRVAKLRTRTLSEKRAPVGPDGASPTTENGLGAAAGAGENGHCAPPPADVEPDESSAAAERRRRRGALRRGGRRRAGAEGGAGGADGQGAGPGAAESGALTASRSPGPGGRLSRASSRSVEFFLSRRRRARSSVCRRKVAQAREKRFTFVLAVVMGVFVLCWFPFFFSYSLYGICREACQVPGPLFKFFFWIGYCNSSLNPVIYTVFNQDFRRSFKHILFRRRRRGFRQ
assay text: compounds altering alpha2C-coupled GIRK flux – cell-based, HEK293 alpha2C/GIRK1/2, thallium flux, primary screen (AID 624);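 also: slope of fluorescence ratio to pre-addition baseline per second over 15 to 24 s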
protocol conditions: thallium flux BTC fluorescence, at 10 µM, actives lie on both sides
The source made the active and inactive calls.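 How the source made its calls: active means fluorescence slope after compound addition differing from the mean of all screened samples at 99.7% confidence, in either direction; inactive means the rest.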
reported metric: slope

Worked examples follow.
Clc1ccc(CSc2nnc(Cn3cnc4ccccc43)o2)cc1 | 0.00613 (inactive)
CC(=O)Nc1ccc(N=Cc2ccc[nH]2)cc1 | 0.00576 (inactive)
Cc1ncc(CSc2nc3ccccc3[nH]2)c(N)n1 | 0.00699 (inactive)
CS(=O)(=O)N1CCc2cc(S(=O)(=O)Nc3ccc4oc5c(c4c3)CCCC5)ccc21 | 0.00786 (inactive)

Challenge: Which slope is reported with Alpha-2C adrenergic receptor (Homo sapiens) (UniProt P18825) for this entry: "COCCSc1nnc(NC(=O)Cc2ccccc2OC)s1" ?
Response given: 0.00483 (inactive)

Challenge: Which slope is reported with Alpha-2C adrenergic receptor (Homo sapiens) (UniProt P18825) for this entry: "Cc1onc(-c2ccccc2)c1C(=O)Nc1sc2c(c1C(N)=O)CCC2" ?
Response given: 0.00375 (inactive)

Challenge: Which slope is reported with Alpha-2C adrenergic receptor (Homo sapiens) (UniProt P18825) for this entry: "NC(=O)C1CCN(C(=S)c2cccs2)CC1" ?
Response given: 0.00525 (inactive)

Challenge: Which slope is reported with Alpha-2C adrenergic receptor (Homo sapiens) (UniProt P18825) for this entry: CCc1ccc(N2CC(C(=O)OCC(=O)Nc3cc(C)on3)CC2=O)cc1 (centres undefined) ?
Response given: 0.00565 (inactive)

Challenge: Which slope is reported with Alpha-2C adrenergic receptor (Homo sapiens) (UniProt P18825) for this entry: "CC1(C)COCN1S(=O)(=O)c1ccc(C(=O)Nc2nnc(-c3ccc(Cl)s3)o2)cc1" ?
Response given: 0.00616 (inactive)

###

assay text: inhibitors of TNFa-induced NFkB p65 translocation, primary screen, imaging, HUVEC, MLSMR starter and 10KST1 sets (AID 438);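 also: compound added about 3h40 before a 20 min TNFalpha stimulation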;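 as to inhibition: signal is the nuclear over cytoplasmic p65 intensity ratio per well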
protocol conditions: HUVEC TNFa-induced p65 nuclear translocation; at 2 µM, stronger effect = higher value, 0% TNFa-plus-vehicle, 100% no-TNFa wells
Calls of active or inactive are those of the source.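 How the source made its calls: active means inhibition above 20% together with a positive visual image hit; inconclusive means visual image hit but inhibition not above 20%; inactive means no visual image hit.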
Some compounds, each annotated with its measured inhibition.

CCOC(=O)CCc1c(C)nc2cc(-c3ccc(F)cc3)[nH]n2c1=O | -7.1% (inactive)
CCOc1ccccc1N(C(=O)Cn1nnnc1-c1ccc(C)o1)C(CC)C(=O)NC(C)(C)C (stereo not given) | 1.6% (inactive)
COc1ccc(S(=O)(=O)NCC(c2cccnc2)N2CCN(c3ccc(F)cc3)CC2)cc1C (stereo not given) | -19.1% (inactive)

Challenge: Which inhibition value belongs to "O=C(OCC(=O)c1ccc[nH]1)c1ccc(S(=O)(=O)N2CCCCC2)cc1" ?
Response given: 22.9% (inactive)

Challenge: Which inhibition value belongs to "COc1ccc(OC)c(C(=O)COC(=O)c2cc(C)oc2C)c1" ?
Response given: -9.6% (inactive)

Challenge: Which inhibition value belongs to "O=C1CCn2nc(-c3ccc(Cl)cc3)cc2N1" ?
Response given: -0.5% (inactive)

Challenge: Which inhibition value belongs to Cc1ccccc1C1CC(c2ccccc2)Nc2ncnn21 (stereo not given) ?
Response given: 0% (inactive)
